Cited source for all entries: ChEMBL document CHEMBL5532664

assay info: in vivo
condition label: Sprague-Dawley, rat, iv, 5 mg/kg
In this section we review reported half-life at 24 h values for a set of compounds.
readout name: half-life at 24 h (h)

INSERT INTO assay_data (molecule_smiles, unit_symbol, test_value) VALUES
  ('Cc1cc(-c2cccs2)ncc1Nc1ncc2c(n1)n(C1CCOCC1)c(=O)n2C', 'h', 3.45),
  ('Cc1cnc(-c2cnn(C)c2)cc1Nc1ncc2c(n1)n(C1CCOCC1)c(=O)n2C', 'h', 7.08),
  ('COc1ccc(-c2cc(C)c(Nc3ncc4c(n3)n(C3CCOCC3)c(=O)n4C)cn2)cc1OC', 'h', 4.73),
  ('Cc1cc(-c2cnn(C(F)F)c2)ncc1Nc1ncc2c(n1)n(C1CCOCC1)c(=O)n2C', 'h', 1.76),
  ('COc1ccc(-c2cc(C)c(Nc3ncc4c(n3)n(C3CCOCC3)c(=O)n4C)cn2)cn1', 'h', 3.34),
  ('Cc1cc(-c2ccc(C=O)o2)ncc1Nc1ncc2c(n1)n(C1CCOCC1)c(=O)n2C', 'h', 9.79),
  ('Cc1cc(-c2nc[nH]n2)ccc1Nc1ncc2c(n1)n(C1CCOCC1)c(=O)n2C', 'h', 11.8);

---

System: NCI-H460
assay info: Antitumor activity against human NCI-H460 cells xenografted in BALB/ c nude mouse assessed as inhibition of tumor growth at 100 mg/kg, po administered once daily with 2 Gy irradiation and measured upto 7 days by vernier caliper analysis
Format: functional, organism-based
condition label: time <= 7.0 day
Activity calls are given as the source filed them. No cut-off for these calls is given here.
readout name: Activity

INSERT INTO measurements (molecule_smiles, target_of_assay, readout_name, test_value) VALUES
  ('Cc1cc(-c2cccs2)ncc1Nc1ncc2c(n1)n(C1CCOCC1)c(=O)n2C', 'NCI-H460', 'Activity', 'Active'),
  ('Cc1cc(-c2cnn(C(F)F)c2)ncc1Nc1ncc2c(n1)n(C1CCOCC1)c(=O)n2C', 'NCI-H460', 'Activity', 'Active'),
  ('Cc1cc(-c2cnn(C)c2)ncc1Nc1ncc2c(n1)n(C1CCOCC1)c(=O)n2C', 'NCI-H460', 'Activity', 'Active'),
  ('Cc1cc2ncnn2cc1Nc1ncc2c(n1)n(C1CCOCC1)c(=O)n2C', 'NCI-H460', 'Activity', 'Active'),
  ('COc1ccc(-c2cc(C)c(Nc3ncc4c(n3)n(C3CCOCC3)c(=O)n4C)cn2)cc1OC', 'NCI-H460', 'Activity', 'Active'),
  ('Cc1cnc(-c2cnn(C)c2)cc1Nc1ncc2c(n1)n(C1CCOCC1)c(=O)n2C', 'NCI-H460', 'Activity', 'Active'),
  ('Cc1cc(-c2ccsc2)ncc1Nc1ncc2c(n1)n(C1CCOCC1)c(=O)n2C', 'NCI-H460', 'Activity', 'Active');

---

assay info: in vivo
condition label: Sprague-Dawley, rat, po, 5 mg/kg
Lab note: anything with Cmax at 24 h at or over 300 ng/mL counts as met; the rest go in not met.

INSERT INTO results (molecule_smiles, class) VALUES
  ('Cc1cc2ncnn2cc1Nc1ncc2c(n1)n(C1CCOCC1)c(=O)n2C', 'met'),
  ('Cc1cc(-c2nc[nH]n2)ccc1Nc1ncc2c(n1)n(C1CCOCC1)c(=O)n2C', 'met'),
  ('Cc1cnc(-c2cnn(C)c2)cc1Nc1ncc2c(n1)n(C1CCOCC1)c(=O)n2C', 'met'),
  ('Cc1cc(-c2cccs2)ncc1Nc1ncc2c(n1)n(C1CCOCC1)c(=O)n2C', 'not met'),
  ('COc1ccc(-c2cc(C)c(Nc3ncc4c(n3)n(C3CCOCC3)c(=O)n4C)cn2)cn1', 'met'),
  ('COc1ccc(-c2cc(C)c(Nc3ncc4c(n3)n(C3CCOCC3)c(=O)n4C)cn2)cc1OC', 'met'),
  ('Cc1cc(-c2cnn(C(F)F)c2)ncc1Nc1ncc2c(n1)n(C1CCOCC1)c(=O)n2C', 'met'),
  ('Cc1cc(-c2ccc(C=O)o2)ncc1Nc1ncc2c(n1)n(C1CCOCC1)c(=O)n2C', 'not met');
